ASSAYED_TARGET: Prostaglandin G/H synthase 1 (Rattus norvegicus); also: assay procedure not described here
Sequence (Q63921 whole entry): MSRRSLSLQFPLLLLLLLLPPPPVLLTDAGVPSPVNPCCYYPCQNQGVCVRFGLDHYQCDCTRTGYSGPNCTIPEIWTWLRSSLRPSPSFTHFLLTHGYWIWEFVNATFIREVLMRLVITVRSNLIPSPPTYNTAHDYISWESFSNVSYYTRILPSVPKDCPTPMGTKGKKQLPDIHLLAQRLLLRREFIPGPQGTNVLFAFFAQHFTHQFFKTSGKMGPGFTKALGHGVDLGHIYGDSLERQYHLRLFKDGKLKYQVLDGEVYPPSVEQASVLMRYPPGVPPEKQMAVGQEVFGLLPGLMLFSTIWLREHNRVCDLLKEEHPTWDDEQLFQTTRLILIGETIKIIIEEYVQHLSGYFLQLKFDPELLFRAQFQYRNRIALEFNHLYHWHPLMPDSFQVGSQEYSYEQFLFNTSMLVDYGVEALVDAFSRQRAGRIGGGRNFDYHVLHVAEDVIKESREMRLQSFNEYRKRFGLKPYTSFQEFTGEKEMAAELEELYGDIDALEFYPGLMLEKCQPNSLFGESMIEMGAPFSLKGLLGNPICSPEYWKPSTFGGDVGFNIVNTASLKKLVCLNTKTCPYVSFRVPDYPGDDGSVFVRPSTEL
Type: functional
The entries below come with measured AC50 values attached.

For orientation, consider the following solved cases.
> print(dat)
                                   compound   result
1  CCOC(=O)[C@H](CCc1ccccc1)N[C@H]1CCCN2CCC[C@@H](C(=O)O)N2C1=O [CILAZAPRIL]  > 30 µM
2  CCC1(C2=CCCCCC2)C(=O)NC(=O)NC1=O [HEPTABARBITAL]  > 10 µM
3  CC(=O)N(CC(O)CO)c1c(I)c(C(=O)NCC(O)CO)c(I)c(C(=O)NCC(O)CO)c1I (stereo not given) [IOHEXOL]  > 30 µM
4  CC(C)C(=O)Nc1ccc([N+](=O)[O-])c(C(F)(F)F)c1 [FLUTAMIDE]  > 10 µM

Now examine the next entry.
Reported AC50 for Nc1nc(N)c2nc(-c3ccccc3)c(N)nc2n1 : what is it?
> 30 µM
